molecular target: T1, human CD137 (human, UniProt Q07011 24-186); test: SPR Biacore T200, IgG captured on protein A, antigen as analyte, 25 C;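 also: antigens flowed over a CM3 chip for 120 s association, KD derived from ka and kd, running buffer (ACES, NaCl, Tween20, pH 7.4) served as blank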
T1 construct: Soluble analyte in the Biacore assay; also called 4-1BB; hCD137
T1 sequence (Q07011 24-186 limits assumed): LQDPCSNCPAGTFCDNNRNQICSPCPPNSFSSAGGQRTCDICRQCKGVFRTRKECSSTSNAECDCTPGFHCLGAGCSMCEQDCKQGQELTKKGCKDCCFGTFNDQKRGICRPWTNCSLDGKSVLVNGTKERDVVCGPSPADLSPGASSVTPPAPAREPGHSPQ
For each of the binders below, state its koff.
Answer format: numeric, s⁻¹ implied, no suffix.

Query: Please look up its koff: dBBDu_193 / dBBDu.L127 (antibody, human IgG1, V domains shown, Tested as IgG (human IgG1 constant region, kappa light chain); also called dBBDu193/L127; dBBDu_193/L127) VH: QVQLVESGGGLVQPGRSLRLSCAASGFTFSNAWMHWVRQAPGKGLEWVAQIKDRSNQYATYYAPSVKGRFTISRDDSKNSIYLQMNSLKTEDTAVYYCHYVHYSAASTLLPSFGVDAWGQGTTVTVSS VL: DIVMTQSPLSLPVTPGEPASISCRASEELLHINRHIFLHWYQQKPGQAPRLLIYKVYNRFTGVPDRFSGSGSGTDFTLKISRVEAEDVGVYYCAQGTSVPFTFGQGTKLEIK
Result: 0.00145

Query: Please look up its koff: dBBDu_167 / dBBDu.L094 (antibody, human IgG1, V domains shown, Tested as IgG (human IgG1 constant region, kappa light chain); also called dBBDu167/L094; dBBDu_167/L094) VH: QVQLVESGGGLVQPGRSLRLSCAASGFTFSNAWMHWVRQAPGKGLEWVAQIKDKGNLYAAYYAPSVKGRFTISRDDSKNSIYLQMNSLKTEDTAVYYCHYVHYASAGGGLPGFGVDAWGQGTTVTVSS VL: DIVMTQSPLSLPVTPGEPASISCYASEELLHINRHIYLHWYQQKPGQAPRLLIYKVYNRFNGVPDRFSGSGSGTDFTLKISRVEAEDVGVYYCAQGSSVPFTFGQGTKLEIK
Result: 0.0102
